- procedure_details: Acute toxicity (LD50) in rats
- condition_description: rat, in vivo, po
property_name: LD50 (mg/kg)
Field: numeric (mg/kg). Do not append units.

In: # lookup: LD50 of Cc1c(C)c2c(c(C)c1OP(=O)(O)OC1=C(O)[C@@H]([C@@H](O)CO)OC1=O)CCC(C)(CCCC(C)CCCC(C)CCCC(C)C)O2 (mixture of isomers)
Out: 5000
